Hello, the source for this data is ChEMBL document CHEMBL1201862, in case you need it.

tested on: LOX IMVI; assay: NCI tumour cell line growth inhibition, 48 h
The source made the active and inactive calls. Rule as the data show it: active = GI50 up to about 1.1 µM and inactive = higher.
Bench note: report the call from active, inactive

Example cases with answers are listed next.
O=C1CSC(/C=C/c2ccccc2)N1c1ccc(-c2ccc(-n3c(-c4ccccc4)nc4ccccc4c3=O)cc2)cc1 (stereo not given) : inactive
COc1cc(C2c3cc4c(cc3OC(N3CCOCC3)C2C)OCO4)ccc1O (stereo not given) : inactive
C(=C(c1ccc(OC2CCCCO2)cc1)c1ccc(OC2CCCCO2)cc1)c1ccccc1 (stereo not given) : active

Ask | For CN(C)CC(NC(NCS)C(=O)NCCNc1ccc(NCCNC(=O)C(NCS)NC(CN(C)C)OCCl)c2c1C(=O)c1c(O)ccc(O)c1C2=O)OCCl (stereo not given) , which call appears in the assay record?
Reply | active

Ask | For COc1cc2ccccc2oc1=O , which call appears in the assay record?
Reply | inactive

Ask | For COc1cc2cc(C(=O)N3CC(COS(C)(=O)=O)c4ccc(O)cc43)[nH]c2c(OC)c1OC (stereo not given) , which call appears in the assay record?
Reply | active
